Data credit: patent US7459585B2

test system: NF-kappa B; experiment: Evaluation of NF-kappa B inhibition (β-gal reporter, IL-1β-induced); format: cell-based; conditions: Homo sapiens; β-gal reporter with NF-kappa B binding motif in SV40 large T-immortalized HUVEC; induced with 1 ng/ml IL-1β; read-out: NF-kB inhibiting activity IC50
Listed here are compounds together with their documented IC50.
Write down the numeric answer in µg/mL and omit the unit.

[[record]]
compound = "CC1(C)C[C@@H]1C(=O)Nc1ccc(C(O)c2ccc(NC(=O)[C@@H]3CC3(C)C)cc2)cc1 (some centres unmarked)"
result = 0.06

[[record]]
compound = "CC1(C)CC1C(=O)Nc1ccc(C(CC#N)c2ccc(NC(=O)C3CC3(C)C)cc2)cc1 (centres unmarked)"
result = 1.2

[[record]]
compound = "CC1(C)CC1C(=O)Nc1ccc(Cc2cccc(NC(=O)C3CC3(C)C)c2)cc1 (centres unmarked)"
result = 0.37


Field request: IC50 | item: CC1(C)CC1C(=O)Nc1ccc(C(CN=[N+]=[N-])c2ccc(NC(=O)C3CC3(C)C)cc2)cc1 (centres unmarked) 2.5

Requested field: IC50. Item: COc1ccc(CCC(=O)Nc2ccc(Cc3ccc(NC(=O)C4CC4(C)C)cc3)cc2)cc1 (centres unmarked) 0.1

====

Entries and their IC50
test system: NF-kappa B; assay: Evaluation of NF-kappa B inhibition (β-gal reporter, IL-1β-induced); format: cell-based; conditions: Homo sapiens; β-gal reporter with NF-kappa B binding motif in SV40 large T-immortalized HUVEC; induced with 1 ng/ml IL-1β; read-out: NF-kB inhibiting activity IC50
Numbers only here, please. The scale is µg/mL.

Sample records with IC50:
[[record]]
compound = "CC1(C)CC1C(=O)Nc1ccc(COc2ccc(NC(=O)C3CC3(C)C)cc2)cc1 (stereo not drawn) [Compound 51]"
assay_endpoint = "IC50"
result = 1

[[record]]
compound = "CC1(C)CC1C(=O)Nc1ccc(Cc2ccc(NC(=O)C3CC3(Cl)Cl)cc2)cc1 (stereo not drawn) [Compound 23]"
assay_endpoint = "IC50"
result = 0.1

[[record]]
compound = "CC1(C)CC1C(=O)Nc1ccc(Oc2ccc(NC(=O)C3CC3(C)C)cc2)cc1 (stereo not drawn) [Compound 4]"
assay_endpoint = "IC50"
result = 1.1


Kindly state the measured IC50 obtained for CC1(C)CC1C(=O)Nc1ccc(C(O)c2ccc(NC(=O)Cc3ccc(Cl)cc3)cc2)cc1 (stereo not drawn) [Compound 44] with NF-kappa B. 1.5

Request body: readout IC50, system NF-kappa B, query COc1ccc(CCNc2ccc(Cc3ccc(NC(=O)C4CC4(C)C)cc3)cc2)cc1 (stereo not drawn) [Compound 27] . Return the value. 0.1

Requested read-out IC50, target or system NF-kappa B, entry CC1(C)CC1C(=O)Nc1ccc(C(CC(=O)O)c2ccc(NC(=O)C3CC3(C)C)cc2)cc1 (stereo not drawn) [Compound 20] 3

// map CC1(C)CC1C(=O)Nc1ccc(C(N)c2ccc(NC(=O)C3CC3(C)C)cc2)cc1 (stereo not drawn) [Compound 9] to recorded IC50 (system: NF-kappa B) 2.5

API: value(readout=IC50, system=NF-kappa B) for record CN(C)c1ccc(CC(=O)Nc2ccc(Cc3ccc(NC(=O)C4CC4(C)C)cc3)cc2)cc1 (stereo not drawn) [Compound 25] 0.03

Value wanted: IC50 (NF-kappa B) of entry CC1(C)CC1C(=O)Nc1ccc(C(CN)c2ccc(NC(=O)C3CC3(C)C)cc2)cc1 (stereo not drawn) [Compound 18] 3

Form: Entry = CC1(C)CC1C(=O)Nc1ccc(Sc2ccc(NC(=O)C3CC3(C)C)cc2)cc1 (stereo not drawn) [Compound 2] | System = NF-kappa B | IC50 = ____ 0.1

Provide value of IC50 for this record tested with NF-kappa B: CC1(C)CC1C(=O)Nc1ccc(Cc2ccc(N3C(=O)C4C5C=CC(C5)C4C3=O)cc2)cc1 (stereo not drawn) [Compound 40] 1

Give IC50 (NF-kappa B) of the following compound: CC1(C)CC1C(=O)Nc1ccc(C(O)c2ccc(NC(=O)C3CC3(C)C)cc2)cc1 (stereo not drawn) [Compound 11] 0.12

Kindly state the measured IC50 obtained for Cc1cc(Cc2ccc(NC(=O)C3CC3(C)C)c(C)c2)ccc1NC(=O)C1CC1(C)C (stereo not drawn) [Compound 38] with NF-kappa B. 0.5

Given the entry CC1(C)CC1C(=O)Nc1ccc(CCc2ccc(NC(=O)C3CC3(C)C)cc2)cc1 (stereo not drawn) [Compound 6] , what IC50 was observed with NF-kappa B? 0.37

Recall the recorded IC50 for COc1ccc(CC(=O)Nc2ccc(Cc3ccc(NC(=O)C4CC4(C)C)cc3)cc2)cc1 (stereo not drawn) [Compound 24] with NF-kappa B and state it. 0.1

What value of IC50 on NF-kappa B does CC1(C)CC1C(=O)Nc1ccc(Nc2ccc(NC(=O)C3CC3(C)C)cc2)cc1 (stereo not drawn) [Compound 3] have? 1

Lab note: need IC50 with NF-kappa B for entry CC1(C)CC1C(=O)Nc1ccc(C(=NO)c2ccc(NC(=O)C3CC3(C)C)cc2)cc1 (stereo not drawn) [Compound 8] , please look it up. 5
